target: Cellular tumor antigen p53 (Homo sapiens) (UniProt P04637); experiment: Primary qHTS for small molecule compounds that upregulate eGFP-tagged delta133p53alpha (in N-terminal) cells. (AID 2060322); conditions: NCI-H358 eGFP-delta133p53alpha fluorescence, 24 h; active compounds read high;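 note: cells pre-induced with doxycycline then dosed without doxycycline; series mostly up to about 56 µM; 0% = DMSO vehicle and 100% = reference activator; nearly all actives have a fitted effect of over 75% in size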
Sequence (P04637 whole entry, looked up): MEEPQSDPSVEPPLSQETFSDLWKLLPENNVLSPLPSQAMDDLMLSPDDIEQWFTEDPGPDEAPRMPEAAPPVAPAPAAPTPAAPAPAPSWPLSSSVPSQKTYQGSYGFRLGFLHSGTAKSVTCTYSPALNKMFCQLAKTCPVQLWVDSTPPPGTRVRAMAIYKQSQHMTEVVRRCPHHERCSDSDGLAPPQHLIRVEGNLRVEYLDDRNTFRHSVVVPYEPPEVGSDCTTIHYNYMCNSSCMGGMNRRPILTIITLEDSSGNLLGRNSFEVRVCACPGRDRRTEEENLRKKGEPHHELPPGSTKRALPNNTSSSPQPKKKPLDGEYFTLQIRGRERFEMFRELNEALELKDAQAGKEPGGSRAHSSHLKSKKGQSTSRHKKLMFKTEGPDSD
Inconclusive results are not listed.
Reported activation values for a set of molecules
READOUT TYPE: activation (%)

INSERT INTO measurements (molecule, experimental_system, readout_type, reported_measurement) VALUES
  ('Cc1cnn(C)c1C(=O)Nc1cc(Nc2ccc3c(C=Cc4ccccn4)n[nH]c3c2)ccc1F', 'Cellular tumor antigen p53 (Homo sapiens) (UniProt P04637)', 'activation', 18.7),
  ('Cc1cn([C@H]2C[C@H](F)[C@@H](CO)O2)c(=O)[nH]c1=O', 'Cellular tumor antigen p53 (Homo sapiens) (UniProt P04637)', 'activation', 0.837),
  ('CC1CC(=O)C2=C(O1)OC1(C)CCC3C(C)(C)C=CC(=O)C3(C)C1C2 (configuration not stated)', 'Cellular tumor antigen p53 (Homo sapiens) (UniProt P04637)', 'activation', -29.5),
  ('CCCN(CCc1ccccc1)C1CCc2c(O)cccc2C1 (configuration not stated)', 'Cellular tumor antigen p53 (Homo sapiens) (UniProt P04637)', 'activation', -29.6),
  ('Cn1cc(S(=O)(=O)c2ccc(Cl)cc2)c2cccc(N3CCNCC3)c21', 'Cellular tumor antigen p53 (Homo sapiens) (UniProt P04637)', 'activation', 3.34),
  ('COc1c2c(c(CO)c3c1C(=O)OC3)OC1(C)CCC3(O)C(C)(C)OC(=O)CCC3(C)C1C2 (configuration not stated)', 'Cellular tumor antigen p53 (Homo sapiens) (UniProt P04637)', 'activation', -16),
  ('N#CCC(=O)NN', 'Cellular tumor antigen p53 (Homo sapiens) (UniProt P04637)', 'activation', 15.9);

Source listed as PubChem BioAssay (NCATS).
